composite z-score listing for selected compounds.
# System: Plasmodium falciparum Sir2 (PF13_0152, Sir2A)
# assay_details: Plasmodium falciparum Sir2A binding compounds – biochemical, small-molecule microarray, 635 nm fluorescence, primary screen (AID 1098);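 note: score merges spot fluorescence intensity with its signal-to-noise ratio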
# measurement_context: fluorescence 635 nm, higher = more signal
Answer as a number with no unit attached.

Below, each entry is followed by its recorded composite z-score result.
compound	composite z-score
N#Cc1ccc(C(O)C2C=CC3C(=O)NC(=O)C3N2Nc2ccc(Cl)cc2Cl)cc1 (centres undefined)	1.42
COCCOC(=O)N1C(=O)[C@@]2(c3cc(C#CCCO)ccc31)[C@H](c1ccccc1OCCO)N1[C@H](c3ccccc3)[C@H](c3ccccc3)OC(=O)[C@H]1[C@@H]2C(N)=O	1.3

Consider the additional compound presented here.
The compound identified as Cc1ccc(S[C@]2(C(=O)NC(C)C)CC(=O)N(C3CCCCC3)[C@@H]2c2ccc(CO)cc2I)cc1 registered its composite z-score at 1.16

====

z-score listing for selected compounds.
# assay_details: blockers of DNA damage checkpoint Chk1 activation – imaging, HeLa, hydroxyurea, phospho-Chk1 nuclear intensity, primary screen (AID 1187); note: test concentration not given here
# measurement_context: hydroxyurea-induced phospho-Chk1 immunofluorescence imaging, higher = more signal
Answer as a number with no unit attached.

Below, each entry is followed by its recorded z-score result.
compound	reported_result
CCOC(=O)C[C@H]1[C@H](OC(=O)Cc2ccc3c(c2)OCO3)[C@@H](NC(=O)c2ccc3ccccc3n2)c2cc(OCCCO)ccc2N1C(=O)Cc1ccc(OC)cc1	0.225
Cc1ccc(S[C@]2(C(=O)NC(C)C)CC(=O)N(C3CCCCC3)[C@@H]2c2ccc(CO)cc2I)cc1	0.202
C=CCC(OC(C)=O)[C@@H]1[C@@H](N(Cc2ccc(-c3ccccc3)cc2)C(=O)c2cccc3ccccc23)c2cc(OCCCO)ccc2N1C(=O)Cc1ccc(OC)cc1 (some centres undefined)	0.0017

Consider the additional compound presented here.
The compound identified as CN(C)CCCNC(=O)[C@@]1(C)c2ccccc2C(=O)N(Cc2ccc(OC(F)(F)F)cc2)[C@H]1c1ccc(CO)cc1 registered its z-score at 0.0436

====

# assay_details: viability profiling in RPMI8226 myeloma cells – cell-based, resazurin fluorescence, basal, 24 h, PK04 Diversity Set, profiling panel (AID 1180);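 note: RPMI8826 multiple myeloma cell line at 5000 cells per well; test concentration not given here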
# measurement_context: higher = more signal
So basically, the class depends on measured z-score, and the ranges are LOW = under -0.7, MID = from -0.7 up to -0.2, HIGH = -0.2 and over

Query block: Bin? COC(=O)[C@@]1(Cc2ccccc2)N=C(c2ccc(OCCCO)cc2)O[C@H]1c1ccccc1CN=[N+]=[N-]
Result block: LOW

Query block: Bin? COc1ccc([Si](C)(C)[C@@H]2[C@@H](CC(=O)N3Cc4ccccc4C[C@H]3CO)O[C@]3(C(=O)N(Cc4ccc(N5CCOC5=O)cc4)c4ccccc43)[C@H]2C)cc1
Result block: MID

Query block: Bin? COC(=O)[C@@]1(Cc2ccc(OC)cc2)[C@H]2c3cc(C(=O)N4CCCC4)n(Cc4ccc(Cl)c(C(F)(F)F)c4)c3C[C@H]2CN1C(=O)c1ccccc1
Result block: LOW

====

# assay_details: viability profiling in MM1S myeloma cells – cell-based, resazurin fluorescence, basal, 24 h, PK04 Diversity Set, profiling panel (AID 1174);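 note: MM1S multiple myeloma cell line; test concentration not given here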
# measurement_context: higher = more signal, called active from +8 up or from −8 down
observable: z-score
Answer as a number with no unit attached.

Below, each entry is followed by its recorded z-score result.
compound	z-score
[N-]=[N+]=Nc1ccccc1[C@H]1OC(c2ccc(OCCCO)cc2)=N[C@@]1(Cc1ccccc1)C(=O)NCC(O)CO (stereo partly drawn)	-1.21
CCOC(=O)C1=CC[C@@H](c2ccc(OC)cc2)N(S(=O)(=O)c2ccc(C)cc2)[C@H]1CC	-0.289
COc1ccc([Si](C)(C)[C@@H]2[C@@H](CC(=O)N3Cc4ccccc4C[C@H]3CO)O[C@]3(C(=O)N(Cc4ccc(N5CCOC5=O)cc4)c4ccccc43)[C@H]2C)cc1	-1.49
C[N+](C)(C)CCCC[C@@H]1NC(=O)[C@@H]2C[C@H](C(=O)NCc3ccc(F)cc3)[C@H](c3ccc(O)cc3)N2C1=O	0.0125
CCCNC(=O)[C@@]1(c2ccc([N+](=O)[O-])cc2)CC(=O)N(C(C)C)[C@@H]1c1ccc(CO)cc1	-0.96
CC(C)NC(=O)[C@@]1(C)c2ccccc2C(=O)N(Cc2ccccc2)[C@H]1c1ccc(CO)cc1	0.782
N#Cc1ccc(-c2cccc(=O)o2)cc1	0.141

Consider the additional compound presented here.
The compound identified as C[N+](C)(C)CCCCNC(=O)[C@H]1C[C@H]2C(=O)N[C@@H](Cc3ccccc3)C(=O)N2[C@H]1c1cccc(OCCO)c1 registered its z-score at -0.476
